Origin of the recorded values: patent US20210070843A1

Documented log10(max. MFI) across a set of binders
biological target: full-length H1 A/California/07/2009 HA expressed on 293T cells (influenza A virus A/California/07/2009 (H1N1)); assay: flow cytometry, HA-expressing 293T
observable: log10(max. MFI) (log10 of the value in MFI)

[[record]]
binder = "P47 (antibody, V domains shown) VH: EVQLVESGGGLVQPGGSLRLSCAASGFTIGNSGIHWVRQAPGKGLEWVASIWPSGGSTYYADSVKGRFTISADTSKNTAYLQMNSLRAEDTAVYYCARFGHIDGDIMDYWGQGTLVTVSS VL: DIQMTQSPSSLSASVGDRVTITCRASQDVYYYVAWYQQKPGKAPKLLISGSSYLYSGVPSRFSGSGSGTDFTLTISSLQPEDFATYYCQQYYNWPLTFGQGTKVEIKR"
observable = "log10(max. MFI)"
value_observed = 4.01

[[record]]
binder = "S01 (antibody, V domains shown) VH: EVQLVESGGGLVQPGGSLRLSCAASGFTINNYGIHWVRQAPGKGLEWVASIWPSGGYTSYADSVKGRFTISADTSKNTAYLQMNSLRAEDTAVYYCARFGLGDYDIMDYWGQGTLVTVSS VL: DIQMTQSPSSLSASVGDRVTITCRASQDVWGYVAWYQQKPGKAPKLLISFPSSLYSGVPSRFSGSGSGTDFTLTISSLQPEDFATYYCQQYYDGPVTFGQGTKVEIKR"
observable = "log10(max. MFI)"
value_observed = 3.93

[[record]]
binder = "S06 (antibody, V domains shown) VH: EVQLVESGGGLVQPGGSLRLSCAASGFTIGGGWIHWVRQAPGKGLEWVAFIGPYGGSTFYADSVKGRFTISADTSKNTAYLQMNSLRAEDTAVYYCARFNFGFWNHMDYWGQGTLVTVSS VL: DIQMTQSPSSLSASVGDRVTITCRASQDVSSWVAWYQQKPGKAPKLLIYGTTFLHSGVPSRFSGSGSGTDFTLTISSLQPEDFATYYCQQYYNGPLTFGQGTKVEIKR"
observable = "log10(max. MFI)"
value_observed = 3.22

[[record]]
binder = "Do1 (antibody, V domains shown) VH: EVQLVESGGGLVQPGGSLRLSCAASGFTIDNGSIHWVRQAPGKGLEWVAWIGPYGGFTSYADSVKGRFTISADTSKNTAYLQMNSLRAEDTAVYYCARFYGSGSSSFMDYWGQGTLVTVSS VL: DIQMTQSPSSLSASVGDRVTITCRASQDVWGGVAWYQQKPGKAPKLLIFFSRYLYSGVPSRFSGSGSGTDFTLTISSLQPEDFATYYCQQYYNGPLTFGQGTKVEIKR"
observable = "log10(max. MFI)"
value_observed = 2.36

[[record]]
binder = "S10 (antibody, V domains shown) VH: EVQLVESGGGLVQPGGSLRLSCAASGFTIGGYGIHWVRQAPGKGLEWVASIGPSWGFTFYADSVKGRFTISADTSKNTAYLQMNSLRAEDTAVYYCARFNWVINGVTDYWGQGTLVTVSS VL: DIQMTQSPSSLSASVGDRVTITCRASQDVSYYVAWYQQKPGKAPKLLIFWSTFLYSGVPSRFSGSGSGTDFTLTISSLQPEDFATYYCQQYYDSPMTFGQGTKVEIKR"
observable = "log10(max. MFI)"
value_observed = 4.03

